// data source = patent US7166738B2

assay_endpoint: melting point

INSERT INTO results (line_notation, result) VALUES
  ('Cc1cc(N2CC[S+]([O-])CC2)ccc1NC(=O)Cc1ccc(C)c(Oc2cc(Cl)cc(C#N)c2)c1', '181.3 to 182.1 °C'),
  ('CCc1ccc(CC(=O)Nc2ccc(S(N)(=O)=O)cc2)cc1Oc1cc(Cl)ccc1Br', '193.7 to 195.9 °C'),
  ('Cc1ccc(CC(=O)Nc2ccc(S(N)(=O)=O)cc2)cc1Oc1cc(F)cc(C#N)c1', '165.8 to 168.1 °C'),
  ('N#Cc1cc(Cl)cc(Oc2cc(CC(=O)Nc3ccc(S(N)(=O)=O)cc3)ccc2Cl)c1', '210.5 to 214 °C'),
  ('CCc1ccc(CC(=O)Nc2ccc(S(N)(=O)=O)cc2)cc1Oc1cc(C#N)cc(C(F)F)c1', '188 to 198 °C'),
  ('N#Cc1cc(Oc2cc(CC(=O)Nc3ccc(S(N)(=O)=O)cc3Cl)ccc2Cl)cc(C(F)(F)F)c1', '198 to 202 °C'),
  ('CCc1ccc(CC(=O)Nc2ccccc2Cl)cc1Oc1cc(Cl)cc(Br)c1Cl', '146.5 to 147.6 °C'),
  ('CCc1ccc(CC(=O)Nc2ccccc2Cl)cc1Oc1cc(Cl)ccc1C#N', '168 to 169.9 °C'),
  ('Cc1cc(N2CCS(=O)(=O)CC2)ccc1NC(=O)Cc1ccc(C)c(Oc2cc(Cl)cc(C#N)c2)c1', '64.8 to 65.4 °C'),
  ('Cc1ccc(CC(=O)Nc2ccc(S(N)(=O)=O)cc2)cc1Oc1cc(Cl)ccc1Br', '236.9 to 239.3 °C'),
  ('N#Cc1cc(C#N)cc(Oc2c(Cl)ccc(CC(=O)Nc3ccccc3Cl)c2F)c1', '182.6 to 196.5 °C'),
  ('Cc1cc(S(N)(=O)=O)ccc1NC(=O)Cc1ccc(Cl)c(Oc2cc(C#N)cc(C#CCN(C)C)c2)c1F', '156.2 to 158.2 °C'),
  ('N#Cc1cc(Oc2c(Br)ccc(CC(=O)Nc3ccc(S(N)(=O)=O)cc3Cl)c2F)cc(C(F)F)c1', '205.4 to 207.7 °C'),
  ('Cc1cc(S(N)(=O)=O)ccc1NC(=O)Cc1ccc(C)c(Oc2cc(Cl)ccc2Br)c1', '200.5 to 203.5 °C'),
  ('COc1ccc(CC(=O)Nc2ccc(S(N)(=O)=O)cc2)cc1Oc1cc(C#N)cc(C(F)F)c1', '213.9 to 214.2 °C'),
  ('CCc1ccc(CC(=O)Nc2ccccc2Cl)cc1Oc1cc(C#N)cc(F)c1Cl', '142.1 to 142.8 °C'),
  ('Cc1cc(CC(=O)Nc2ccc(S(N)(=O)=O)cc2Cl)cc(Oc2cc(C#N)ccc2Cl)c1', '212.9 to 214.4 °C');

====

Here, each record is paired with measured melting point data.
assay_endpoint: melting point

INSERT INTO assay_data (molecule, result) VALUES
  ('Cc1cc(S(N)(=O)=O)ccc1NC(=O)Cc1ccc(Cl)c(Oc2cc(C#N)cc(C#CCO)c2)c1F [Compound I-186]', '170.1 to 173.2 °C'),
  ('COc1cc(CC(=O)Nc2ccc(S(N)(=O)=O)cc2)cc(Oc2cc(C#N)ccc2Cl)c1 [Compound I-102]', '180.5 to 181.3 °C'),
  ('CCc1ccc(CC(=O)Nc2ccc(S(N)(=O)=O)cc2)cc1Oc1cc(Cl)cc(C#N)c1 [Compound I-45]', '170.7 to 172.4 °C'),
  ('Cc1cc(S(=O)(=O)NCC(C)O)ccc1NC(=O)Cc1ccc(C)c(Oc2cc(Cl)cc(C#N)c2)c1 (stereo not shown) [Compound I-129]', '172.2 to 173.4 °C'),
  ('Cc1cc(S(N)(=O)=O)ccc1NC(=O)Cc1ccc(Cl)c(Oc2cc(C#N)cc(C(F)(F)F)c2)c1F [Compound I-120]', '212 to 216.1 °C'),
  ('COc1ccc(CC(=O)Nc2ccc(S(N)(=O)=O)cc2C)cc1Oc1cc(Cl)cc(C#N)c1 [Compound I-73]', '222.3 to 224.3 °C'),
  ('COc1cc(CC(=O)Nc2ccc(S(N)(=O)=O)cc2C)cc(Oc2cc(C#N)ccc2Cl)c1 [Compound I-103]', '179.8 to 184 °C'),
  ('Cc1cc(S(=O)(=O)CC(=O)O)ccc1NC(=O)Cc1ccc(C)c(Oc2cc(Cl)cc(C#N)c2)c1 [Compound I-152]', '180.5 to 181.4 °C'),
  ('N#Cc1cccc(Oc2cc(CC(=O)Nc3ccc(S(N)(=O)=O)cc3)cc3ccoc23)c1 [Compound I-144]', '196.4 to 198.7 °C'),
  ('Cc1cc(S(N)(=O)=O)ccc1NC(=O)Cc1ccc(Cl)c(Oc2cc(C#N)cc(C#N)c2)c1F [Compound I-32]', '248.4 to 250.8 °C'),
  ('CCC(=O)NS(=O)(=O)c1ccc(NC(=O)Cc2ccc(C)c(Oc3cc(Cl)cc(C#N)c3)c2F)c(Cl)c1.[Na]', '158.8 to 162 °C'),
  ('CCC(=O)N(C)S(=O)(=O)c1ccc(NC(=O)Cc2ccc(Cl)c(Oc3cc(Cl)cc(C#N)c3)c2F)c(C)c1 [Compound I-99]', '212 to 216.9 °C'),
  ('Cc1cc(S(=O)(=O)NC(=O)[C@@H](N)C(C)C)ccc1NC(=O)Cc1ccc(Cl)c(Oc2cc(Cl)cc(C#N)c2)c1F.Cl', '169 to 180.3 °C'),
  ('Cc1cc(OC[C@@H](O)CO)ccc1NC(=O)Cc1ccc(C)c(Oc2cc(Cl)cc(C#N)c2)c1 [Compound I-150]', '137.5 to 138.4 °C'),
  ('CCc1ccc(CC(=O)Nc2ccccc2Cl)cc1Oc1cc(Br)cc(Br)c1Cl [Compound I-38]', '155.5 to 155.8 °C'),
  ('COCC(=O)N(C)S(=O)(=O)c1ccc(NC(=O)Cc2ccc(Cl)c(Oc3cc(Cl)cc(C#N)c3)c2F)c(Cl)c1 [Compound I-171]', '183.2 to 185.5 °C');

====

assay_endpoint: melting point

INSERT INTO results (line_notation, result) VALUES
  ('Cc1ccc(CC(=O)Nc2ccc(S(N)(=O)=O)cc2Cl)cc1Oc1cc(C#N)cc(C#N)c1', '209.9 to 211.5 °C'),
  ('NS(=O)(=O)c1ccc(NC(=O)Cc2cc(Oc3cc(Cl)cc(Cl)c3)c3occc3c2)c(Cl)c1', '215.1 to 216.6 °C'),
  ('Cc1cc(CC(=O)Nc2ccc(S(N)(=O)=O)cc2)cc(Oc2cc(Cl)cc(C#N)c2)c1C', '229.7 to 231.3 °C'),
  ('COc1ccc(CC(=O)Nc2ccc(S(N)(=O)=O)cc2Cl)cc1Oc1cc(C#N)cc(C(F)F)c1', '185 to 187.9 °C'),
  ('CCc1ccc(CC(=O)Nc2ccccc2Cl)cc1Oc1cc(C#N)cc(C#N)c1Cl', '110 to 111.5 °C'),
  ('CCc1ccc(CC(=O)Nc2ccc(S(N)(=O)=O)cc2Cl)cc1Oc1cc(C#N)cc(C(F)F)c1', '191.8 to 192.5 °C'),
  ('Cc1cc(C#N)cc(C)c1Oc1cc(CC(=O)Nc2ccc(S(N)(=O)=O)cc2)ccc1Cl', '227.3 to 231.4 °C'),
  ('COc1cc(CC(=O)Nc2ccc(S(N)(=O)=O)cc2)cc(Oc2cc(Cl)cc(C#N)c2)c1', '184.1 to 185.5 °C'),
  ('CCc1cc(CC(=O)Nc2ccc(S(N)(=O)=O)cc2C)cc(Oc2cc(C#N)ccc2Cl)c1', '231.6 to 233.1 °C'),
  ('Cc1cc(S(N)(=O)=O)ccc1NC(=O)Cc1ccc(Cl)c(Oc2cc(C#N)cc(C(C)(F)F)c2)c1F', '198.5 to 201 °C');

====

assay_endpoint: melting point

INSERT INTO assay_data (line_notation, result) VALUES
  ('N#Cc1cc(Oc2c(F)c(CC(=O)Nc3ccc(S(N)(=O)=O)cc3)cc(Br)c2Br)cc(C(F)F)c1', '144 to 147 °C'),
  ('Cc1ccc(CC(=O)Nc2ccc(S(N)(=O)=O)cc2Cl)c(F)c1Oc1cc(C#N)cc(C(F)F)c1', '218 to 218.7 °C'),
  ('Cc1cc(S(=O)(=O)NCCN2CCOCC2)ccc1NC(=O)Cc1ccc(C)c(Oc2cc(Cl)cc(C#N)c2)c1', '177 to 181 °C'),
  ('CCc1ccc(CC(=O)Nc2ccccc2Cl)cc1Oc1cc(Cl)ccc1Br', '154 to 155.5 °C'),
  ('CCc1ccc(CC(=O)Nc2ccccc2Cl)cc1Oc1cc(Br)cc(F)c1Cl', '146.6 to 147.2 °C'),
  ('COc1ccc(CC(=O)Nc2ccccc2Cl)cc1Oc1cc(Cl)cc(C#N)c1', '175.7 to 178.3 °C'),
  ('Cc1cc(S(=O)(=O)CCN)ccc1NC(=O)Cc1ccc(C)c(Oc2cc(Cl)cc(C#N)c2)c1', '92.4 to 95.5 °C'),
  ('Cc1cc(S(N)(=O)=O)ccc1NC(=O)Cc1cc(C)c(C)c(Oc2cc(Cl)cc(C#N)c2)c1', '230.8 to 233.4 °C');
